Documented thermal shift delta Tm across a set of compounds
system: LOC_OS01G48390-cb002; experiment: thermal shift delta Tm vs DMSO control; higher = stronger stabilization (binding); details: 12.5 µM; protein concentration 2 µM;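 note: purified Escherichia coli-expressed rice kinase domain construct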
# output: bare number, implied unit °C

# example entries with known answers
>>> result_value("O=C1NC(=O)C(=Cc2ccc(-c3ccc(F)cc3)o2)S1 (stereo in doubt)")
0.58
>>> result_value("O=c1c(O)c(-c2cc(O)c(O)c(O)c2)oc2cc(O)cc(O)c12 [Myricetin]")
2.72
>>> result_value("CC(C)(C#N)c1ccc(N2C(=O)OCc3cnc4ccc(-c5cnc6ccccc6c5)cc4c32)cc1")
0.59
>>> result_value("C=CC(=O)N1CCC(Oc2cc3c(Nc4ccc(Cl)c(Cl)c4F)ncnc3cc2OC)CC1 [Poziotinib (HM781-36B)]")
0.49

The compound listed as `O=c1ncn2nc(Sc3ccc(F)cc3F)ccc2c1-c1c(Cl)cccc1Cl` has a reported thermal shift delta Tm of 0.32

The compound listed as `NCC(=O)Nc1ccc(-n2nc(C(F)(F)F)cc2-c2ccc3c(ccc4ccccc43)c2)cc1` has a reported thermal shift delta Tm of 0.79

The compound listed as `Cc1[nH]c(/C=C2\C(=O)Nc3ccc(S(=O)(=O)N(C)c4cccc(Cl)c4)cc32)c(C)c1C(=O)N1CCN(C)CC1` has a reported thermal shift delta Tm of 0.18

The compound listed as `CC(C)(C)NS(=O)(=O)c1cncc(-c2cc(F)c3nc(N)nn3c2)c1` has a reported thermal shift delta Tm of 0.32

The compound listed as `CN(C)Cc1cccc(N/C(=C2\C(=O)Nc3cc(C(N)=O)ccc32)c2ccccc2)c1` has a reported thermal shift delta Tm of 0.48

---

tested on: LOC_OS02G08530-cb003; assay: thermal shift delta Tm vs DMSO control; higher = stronger stabilization (binding); conditions: 12.5 µM; protein concentration 2 µM
test readout: thermal shift delta Tm (°C)
# output: bare number, implied unit °C

The compound listed as COc1cc2nccc(Oc3ccc(NC(=O)NC4CC4)c(Cl)c3)c2cc1C(N)=O [Lenvatinib (E7080)] has a reported thermal shift delta Tm of 1.11

---

tested on: LOC_OS01G70970-cb002; assay: thermal shift delta Tm vs DMSO control; higher = stronger stabilization (binding); settings: 12.5 µM; protein concentration 2 µM
Documented thermal shift delta Tm across a set of compounds
# output: bare number, implied unit °C

The compound listed as `Cc1cc(CS(=O)(=O)c2ccccc2)cc(OCc2ccc(CN3CCC[C@@H]3CO)cc2)c1` has a reported thermal shift delta Tm of 0.62

The compound listed as `CC(C)n1ncnc1-c1cn2c(n1)-c1ccc(O[C@@H](C)C(N)=O)cc1OCC2` has a reported thermal shift delta Tm of 0.21

The compound listed as `Cc1cc(CN2CCN(c3c(Br)cnc4nc(-c5ccc(N6CCN(C)CC6)cc5)[nH]c34)CC2)no1` has a reported thermal shift delta Tm of 1.3

The compound listed as CN1CCN(C2CCN(C(=O)Nc3cc(Oc4ccc(NC(=O)C5(C(=O)Nc6ccc(F)cc6)CC5)c(F)c4)ccn3)CC2)CC1 [Golvatinib (E7050)] has a reported thermal shift delta Tm of 0.6

The compound listed as `COc1ccc(-c2nc(N3CCOCC3)c3sc(CN(C)c4ncc(C(=O)NO)cn4)cc3n2)cn1` has a reported thermal shift delta Tm of 0.21

The compound listed as `O=C(Nc1cccc(Nc2ncc(Br)c(NCCc3cnc[nH]3)n2)c1)N1CCCC1` has a reported thermal shift delta Tm of 9.39

The compound listed as `NCC(=O)Nc1ccc(-n2nc(C(F)(F)F)cc2-c2ccc3c(ccc4ccccc43)c2)cc1` has a reported thermal shift delta Tm of 0.2

The compound listed as `O=c1sn(-c2cccc3ccccc23)c(=O)n1Cc1ccccc1` has a reported thermal shift delta Tm of -0.22

The compound listed as `Cc1nc(Nc2cnn(C3CCNCC3)c2)nc2c1N(C)C(=O)c1cc3ccccc3cc1N2C` has a reported thermal shift delta Tm of 0.51

The compound listed as `CC[C@@H]1C(=O)N(C)c2cnc(Nc3ccc(C(=O)NC4CCN(C)CC4)cc3OC)nc2N1C1CCCC1` has a reported thermal shift delta Tm of 0.34

---

test system: LOC_OS01G60330-cb001; assay: thermal shift delta Tm vs DMSO control; higher = stronger stabilization (binding); conditions: 12.5 µM; protein concentration 2 µM
Structures can show the parent of a compound that is named as a salt.
Threshold check on thermal shift delta Tm: at or above 2 °C gives Met, strictly below gives Not met.

Reported thermal shift delta Tm reaches at least 2 °C for Cc1cc(O)c(-c2ccc([C@@H](C)CN)cc2)c2c1[nH]c(=O)c1sccc12 [OTS514 hydrochloride] ?
Met

Reported thermal shift delta Tm reaches at least 2 °C for `CCOC(=O)c1cnc2ccc(-c3cncc(NS(=O)(=O)c4ccccc4)c3)cn12` ?
Not met

Reported thermal shift delta Tm reaches at least 2 °C for `CCc1ccc(/C=C2/SC(=S)NC2=O)cc1` ?
Not met

Reported thermal shift delta Tm reaches at least 2 °C for `COc1cc(C(=O)N2CCC(N3CCN(C)CC3)CC2)ccc1Nc1ncc2c(n1)N(C)c1ccccc1C(=O)N2C` ?
Not met

Reported thermal shift delta Tm reaches at least 2 °C for `CCCCNc1ncc2c(-c3ccc(CN4CCN(C)CC4)cc3)cn([C@H]3CC[C@H](O)CC3)c2n1` ?
Met

Reported thermal shift delta Tm reaches at least 2 °C for `CN1CCC(Nc2nc(Nc3ccc(Oc4ccccc4)cc3)c3c(=O)[nH]cc(Br)c3n2)CC1` ?
Met

---

tested on: LOC_OS03G04050-cb001; assay: thermal shift delta Tm vs DMSO control; higher = stronger stabilization (binding); details: 12.5 µM; protein concentration 2 µM
Documented thermal shift delta Tm across a set of compounds
# output: bare number, implied unit °C

>>> result_value("CCc1cc(Nc2nccc(-c3c(-c4ccc(OC)c(C(=O)Nc5c(F)cccc5F)c4)nc4ccccn34)n2)c(OC)cc1N1CCC(N2CCN(S(C)(=O)=O)CC2)CC1")
0.66
>>> result_value("Cc1nc(N)sc1-c1ccnc(Nc2ccc(N3CCOCC3)cc2)n1")
0.62
>>> result_value("Nc1cccc(-c2cc3c(Oc4cccc(O)c4)ncnc3[nH]2)c1")
0.45
>>> result_value("OCCn1cc(-c2ccc3c(c2)CC/C3=N\\O)c(-c2ccncc2)n1")
0.48
>>> result_value("CN(C)Cc1cccc(N=C(c2ccccc2)c2c(O)[nH]c3cc(C(=O)N(C)C)ccc23)c1")
0.44
>>> result_value("O=C1NC(=O)/C(=C/c2ccc(-c3ccc(F)cc3O)o2)S1")
1.72
>>> result_value("CN1CCN(c2ccc(C(=O)Nc3n[nH]c4ccc(Cc5cc(F)cc(F)c5)cc34)c(NC3CCOCC3)c2)CC1 [Entrectinib (RXDX-101)]")
0.06

Let's switch to this compound now.
The compound listed as `C[C@H](NC(=O)c1c(N)nn2cccnc12)c1cc2cccc(C#Cc3cnn(C)c3)c2c(=O)n1-c1ccccc1` has a reported thermal shift delta Tm of 0.47

---

system: LOC_OS02G08530-cb003; assay: thermal shift delta Tm vs DMSO control; higher = stronger stabilization (binding); conditions: 12.5 µM; protein concentration 2 µM
test readout: thermal shift delta Tm

>>> result_value("C[C@H]1[C@H](C)CC[C@]2(C(=O)O)CC[C@]3(C)C(=CC[C@@H]4[C@@]5(C)C[C@@H](O)[C@H](O)[C@@](C)(CO)[C@@H]5CC[C@]43C)[C@H]12")
"0.74 °C"
>>> result_value("CN(C)CCCn1cc(C2=C(c3c[nH]c4ccccc34)C(=O)NC2=O)c2ccccc21")
"0.74 °C"
>>> result_value("CCCNC(=O)c1cn2ncnc(Nc3cc(C(=O)NC4CC4)ccc3C)c2c1C")
"0.8 °C"
>>> result_value("Cc1cc(Nc2cc(N3CCN(C)CC3)nc(/C=C/c3ccccc3)n2)n[nH]1")
"2.41 °C"

The compound listed as `O=C(NCCO)c1cccc(-c2cc(Nc3ccc(OC(F)(F)F)cc3)ncn2)c1` has a reported thermal shift delta Tm of 0.44 °C

The compound listed as `Cc1cc(Nc2ncnc3ccc(NC4=NC(C)(C)CO4)cc23)ccc1Oc1ccn2ncnc2c1` has a reported thermal shift delta Tm of 0.22 °C

The compound listed as `CCN1C(=O)CNc2ncc(-c3ccc(-c4nc[nH]n4)nc3C)nc21` has a reported thermal shift delta Tm of 0.04 °C

The compound listed as `CC(C)(C)c1nc(-c2ccc(NC(=O)Nc3cccc(C(F)(F)F)c3)c3ccccc23)c2c(N)nccn12` has a reported thermal shift delta Tm of 2.22 °C

---

system: LOC_OS07G06570-cb004; assay: thermal shift delta Tm vs DMSO control; higher = stronger stabilization (binding); conditions: 12.5 µM; protein concentration 2 µM
test readout: thermal shift delta Tm (°C)
# output: bare number, implied unit °C

The compound listed as `C[C@H]1CNC(=O)c2cnn3ccc(nc23)N[C@H](C)c2cc(F)ccc2O1` has a reported thermal shift delta Tm of 1.57

The compound listed as `Nc1cccc(S(=O)(=O)N2CCCN(S(=O)(=O)c3ccc4c(c3)OCCO4)CC2)c1` has a reported thermal shift delta Tm of 1.4

The compound listed as `CNC(=O)c1cc(Oc2ccc3nc(N[C@@H]4CCCC[C@H]4O)sc3c2)ccn1` has a reported thermal shift delta Tm of 0.18

The compound listed as `Cc1cc(C(=O)NOCCO)c(Nc2ccc(I)cc2F)n(C)c1=O` has a reported thermal shift delta Tm of 1.15

The compound listed as `O=C(O)c1ccc(-c2c[nH]c3ncc(-c4ccccc4)cc23)cc1C1CCCC1` has a reported thermal shift delta Tm of -3.29

The compound listed as `C#Cc1cccc(Nc2ncnc3cc(OCCOC)c(OCCO)cc23)c1` has a reported thermal shift delta Tm of 0.7
